Target: recombinant human ACC1 (rhACC1) (Homo sapiens, UniProt Q13085, DEL44-44)
Construct: infected with recombinant baculovirus containing full length human ACC1 cDNA; made in house; host or cells: SF9 insect cells (baculovirus)
Experiment: recombinant hACC1 Transcreener assay (ADP detection FP)
Format: biochemical
Settings: recombinant hACC1 Transcreener assay, 50 μM ATP, minimum of n=3; read-out: hACC1
pIC50: −log10 of the molar value.
Decision: pIC50 compared against 7; not below it gives 1, below it gives -1.

Exercise: Exam item: decide whether the reported pIC50 for COc1ccc(-c2cccc3[nH]c(C(=O)N4CCC5(CC4)CC(=O)c4c(cnn4C(C)C)C5)cc23)cc1CC(=O)O is at least 7.
Solution: 1

Exercise: Form field: pIC50 at least 7? Entry: CC(C)(C)n1ncc2c1C(=O)CC1(CCN(C(=O)c3cc4c(-c5ccc(C(=O)O)cc5)cccc4[nH]3)CC1)C2
Solution: 1

Exercise: For this molecule, is measured pIC50 7 or higher? CC(C)n1ncc2c1C(=O)CC1(CCN(C(=O)c3cc(-c4ccc(C(=O)O)cc4)c4cc[nH]c4c3)CC1)C2
Solution: 1

Exercise: Could you tell me if the measured pIC50 of COc1cc(C(=O)N2CCC3(CC2)CC(=O)c2c(cnn2C(C)C)C3)cc(-c2cccc(C(=O)O)c2)n1 reaches 7 or more?
Solution: 1

Exercise: Threshold query (pIC50 >= 7) on CC(C)n1ncc2c1C(=O)CC1(CCN(C(=O)c3cc(-c4ccc(C(=O)O)cc4)[nH]c(=O)c3)CC1)C2
Solution: -1

Exercise: Textbook exercise: given the entry CC(C)Nc1nc(-c2ccc(C(=O)O)cc2)ccc1C(=O)N1CCC2(CC1)CC(=O)c1c(cnn1C(C)(C)C)C2 , state whether its pIC50 is greater than or equal to 7.
Solution: -1

Exercise: Can CC(C)n1ncc2c1C(=O)CC1(CCN(C(=O)c3cc(C(=O)O)cc(-c4ncco4)c3)CC1)C2 be said to have pIC50 at or above 7?
Solution: -1

Exercise: Given CC(C)n1ncc2c1C(=O)CC1(CCN(C(=O)c3cc(-c4ccc(C(=O)O)cc4)nc(N(C)C)c3)CC1)C2 , state whether its pIC50 is at least 7.
Solution: 1

Exercise: Could you please find out whether CC(C)n1ncc2c1C(=O)CC1(CCN(C(=O)c3cc4ccc(-c5cccc(C(=O)O)c5)cc4[nH]3)CC1)C2 has pIC50 that meets 7 or exceeds it?
Solution: 1

Exercise: pIC50 >= 7 for CC(C)n1ncc2c1C(=O)CC1(CCN(C(=O)c3ccc(-c4cccc(-c5nnn[nH]5)c4)cc3)CC1)C2 ?
Solution: 1
